# Experimental system: PAS domain-containing serine/threonine-protein kinase (Homo sapiens) (UniProt Q96RG2)
# Sequence (Q96RG2 whole entry, the tested form may be a part): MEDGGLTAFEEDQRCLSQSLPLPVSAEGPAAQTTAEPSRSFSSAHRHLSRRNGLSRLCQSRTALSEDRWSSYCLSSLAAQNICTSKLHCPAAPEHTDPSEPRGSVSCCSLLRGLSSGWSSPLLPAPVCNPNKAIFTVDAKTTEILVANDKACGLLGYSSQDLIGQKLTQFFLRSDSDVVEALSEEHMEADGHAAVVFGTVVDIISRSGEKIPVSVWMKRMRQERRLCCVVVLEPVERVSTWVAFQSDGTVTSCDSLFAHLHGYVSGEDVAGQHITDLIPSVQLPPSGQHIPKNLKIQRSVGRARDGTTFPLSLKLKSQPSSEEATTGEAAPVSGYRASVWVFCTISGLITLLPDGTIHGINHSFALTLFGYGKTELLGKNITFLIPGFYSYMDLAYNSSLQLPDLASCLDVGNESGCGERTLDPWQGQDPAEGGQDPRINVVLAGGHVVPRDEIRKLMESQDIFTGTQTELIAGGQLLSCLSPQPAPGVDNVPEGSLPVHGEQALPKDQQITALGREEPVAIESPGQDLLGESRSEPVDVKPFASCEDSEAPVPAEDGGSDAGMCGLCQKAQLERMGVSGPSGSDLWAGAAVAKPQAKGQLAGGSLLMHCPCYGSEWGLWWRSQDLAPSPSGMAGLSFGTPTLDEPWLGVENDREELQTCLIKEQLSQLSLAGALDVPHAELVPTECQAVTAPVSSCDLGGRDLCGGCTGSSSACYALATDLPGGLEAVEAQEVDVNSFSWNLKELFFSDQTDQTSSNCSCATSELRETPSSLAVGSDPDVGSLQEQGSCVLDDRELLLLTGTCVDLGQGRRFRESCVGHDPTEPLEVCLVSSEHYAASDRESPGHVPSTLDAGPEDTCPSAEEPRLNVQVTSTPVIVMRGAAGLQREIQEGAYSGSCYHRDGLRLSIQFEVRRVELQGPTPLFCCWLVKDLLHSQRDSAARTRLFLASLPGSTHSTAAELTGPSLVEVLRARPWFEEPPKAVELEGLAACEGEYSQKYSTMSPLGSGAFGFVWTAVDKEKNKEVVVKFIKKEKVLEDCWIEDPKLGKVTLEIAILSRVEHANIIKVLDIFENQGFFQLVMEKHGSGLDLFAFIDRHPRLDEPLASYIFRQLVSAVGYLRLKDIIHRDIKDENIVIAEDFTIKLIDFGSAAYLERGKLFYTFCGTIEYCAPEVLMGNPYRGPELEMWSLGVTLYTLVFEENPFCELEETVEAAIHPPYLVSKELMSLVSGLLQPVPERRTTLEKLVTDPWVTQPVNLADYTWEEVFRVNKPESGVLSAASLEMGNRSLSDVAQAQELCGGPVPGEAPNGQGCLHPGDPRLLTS
# Run conditions: at 0.1 µM
# Description: GSK_PKIS: PASK mean inhibition at 0.1 uM [Nanosyn]
Measured property: inhibition (%)
Numbers only, in %.

Recorded results for 2 molecules are shown here.
[[record]]
chem_smiles = "FC(F)(F)c1cccc(-c2nn3ncccc3c2-c2ccnc(Nc3ccc4c(c3)OCCO4)n2)c1"
experimental_system = "PAS domain-containing serine/threonine-protein kinase (Homo sapiens) (UniProt Q96RG2)"
quantitative_result = 0.04

[[record]]
chem_smiles = "NC(=O)c1sc(-n2cnc3ccc(C(F)(F)F)cc32)cc1OCc1ccccc1Br"
experimental_system = "PAS domain-containing serine/threonine-protein kinase (Homo sapiens) (UniProt Q96RG2)"
quantitative_result = -1.22


input: I am curious: what inhibition value has been reported for COc1cc(/C=N/Nc2ncnc3[nH]ncc23)ccc1O ?
output: -0.24
